experiment: gradient 5% acetonitrile 3 min, to 50% in 2 min, to 85% in 15 min, held 3 min, 100 µL/min; details: column: Zorbax Extend-C18 2.1 x 50 mm; eluents: water / acetonitrile, 0.1% formic acid
Sorting guide: entries reporting RP-LC retention time beneath 1000 s go in the Met pile, the rest go in the Not met pile.

[[record]]
sample_smiles = "Cc1cccc(-c2noc(Cn3c(=O)n(-c4cccc(C)c4)c(=O)c4sccc43)n2)c1"
label_value = "Not met"

[[record]]
sample_smiles = "Cc1ccc(NC(=O)Cn2nc(N3CCCCCC3)c3ccccc3c2=O)cc1F"
label_value = "Not met"

[[record]]
sample_smiles = "O=C(NCCN1CCOCC1)c1nc(Nc2ccc(F)cc2)c2ccccc2n1"
label_value = "Met"

[[record]]
sample_smiles = "O=C(c1nc(Nc2ccc(F)cc2)c2ccccc2n1)N1CCCCCC1"
label_value = "Met"

[[record]]
sample_smiles = "O=C(c1ccoc1)N1[C@H]2CC[C@@H]1c1cnc(-c3ccccc3)nc1C2"
label_value = "Met"


###

experiment: gradient 5% acetonitrile 3 min, to 50% in 2 min, to 85% in 15 min, held 3 min, 100 µL/min; conditions: column: Zorbax Extend-C18 2.1 x 50 mm; eluents: water / acetonitrile, 0.1% formic acid
measured.parameter: RP-LC retention time (s)

[[record]]
molecule = "Cc1nc2cc3c(cc2n1CC(=O)NC(C)c1ccc2c(c1)OCCCO2)OCCO3 (centres undefined)"
quantitative_result = 634

[[record]]
molecule = "COc1cccc(Cn2cnc3c(-c4cccc(F)c4)csc3c2=O)c1"
quantitative_result = 1050

[[record]]
molecule = "COc1ccc(N2CC(NC(=O)C(=O)c3c[nH]c4ccccc34)CC2=O)cc1 (centres undefined)"
quantitative_result = 761

[[record]]
molecule = "Cc1ccc(-c2nccn3cc(C(=O)NC(C)C)nc23)cc1"
quantitative_result = 883

[[record]]
molecule = "COc1ccc(N2CCN(C(=O)CN3CCN(Cc4ccccc4)C3=O)CC2)cc1"
quantitative_result = 714

[[record]]
molecule = "CN(C)C[C@@H]1CN(S(C)(=O)=O)C[C@H]1NC(=O)c1cccs1"
quantitative_result = 569

[[record]]
molecule = "CCOc1ccc(-c2cc3c(=O)n(Cc4nc(-c5ccc(OCC)c(OC)c5)no4)ncn3n2)cc1"
quantitative_result = 1150

[[record]]
molecule = "O=S(=O)(c1ccc(F)c(F)c1)N1CCc2nc(-c3ccccc3)ncc2C1"
quantitative_result = 1090

[[record]]
molecule = "CCCn1c(-c2cccc(C(=O)NC3CCCC3)c2)nc2cccnc21"
quantitative_result = 772

[[record]]
molecule = "O=c1c2cc(-c3ccccc3)nn2ccn1CC(O)c1ccccc1 (centres undefined)"
quantitative_result = 846

[[record]]
molecule = "O=C(CN1CCN(Cc2ccccc2)C1=O)NCc1cccc(F)c1"
quantitative_result = 761

[[record]]
molecule = "CCOCC(=O)N1CCCN(C2=NS(=O)(=O)C(c3ccc(C)cc3)=C2C)CC1"
quantitative_result = 752

[[record]]
molecule = "Cc1ccccc1NC(=O)C1CC(=O)N(c2n[nH]c3cccc(F)c23)C1 (centres undefined)"
quantitative_result = 733

[[record]]
molecule = "O=C(C1CCCN(c2ccncc2)C1)N1CCCCCC1 (centres undefined)"
quantitative_result = 603

[[record]]
molecule = "CCn1nnc2cc(-c3noc(C4CC(=O)N(c5ccc(C)cc5)C4)n3)ccc21 (centres undefined)"
quantitative_result = 880

[[record]]
molecule = "CN1C(=O)c2cc(C(=O)Nc3ccccc3Cl)nn2CC1(C)C(=O)NC1CCCCC1 (centres undefined)"
quantitative_result = 887

[[record]]
molecule = "Cc1ccc(C)c(Nc2c(-c3cc(Br)ccc3O)nc3ncccn23)c1"
quantitative_result = 1100

[[record]]
molecule = "CSc1ncc(C(=O)NC2CC2)c(N)n1"
quantitative_result = 543

[[record]]
molecule = "CCCNC(=O)c1cn(-c2ncccc2-c2nc(-c3ccccc3)no2)cn1"
quantitative_result = 823

[[record]]
molecule = "CN1C(=O)c2[nH]nc(-c3ccccc3)c2C1c1cccc(O)c1 (centres undefined)"
quantitative_result = 687

[[record]]
molecule = "Nc1nnc(Cc2ccc3c(c2)OCCO3)o1"
quantitative_result = 589

[[record]]
molecule = "COc1ccc(OC)c(NC(=O)c2c(OC)cc(=O)n3c2CCCC3)c1"
quantitative_result = 695

[[record]]
molecule = "COc1ccccc1NC(=O)N1CCC(CNC(=O)c2cc(Cl)ccc2Cl)CC1"
quantitative_result = 811

[[record]]
molecule = "COC(=O)c1cnc2nc(C)ccc2c1Nc1cc(F)ccc1F"
quantitative_result = 669


###

Listed here are molecules together with their documented RP-LC retention time.
assay: gradient 5% acetonitrile 3 min, to 50% in 2 min, to 85% in 15 min, held 3 min, 100 µL/min; details: column: Zorbax Extend-C18 2.1 x 50 mm; eluents: water / acetonitrile, 0.1% formic acid
measured.parameter: RP-LC retention time (s)

[[record]]
molecule = "COc1ccc(C(=O)Nc2nccnc2C(=O)NC2CCCCC2)cc1"
result_units = "s"
quantitative_result = 1040

[[record]]
molecule = "Cc1cccc(CN2CCCn3nc(C(=O)NCCc4ccco4)cc3C2=O)c1"
result_units = "s"
quantitative_result = 870

[[record]]
molecule = "CCN(Cc1ccc(Cl)cc1)Cc1cc(=O)n2ccccc2n1"
result_units = "s"
quantitative_result = 615

[[record]]
molecule = "CCn1cnc(S(=O)(=O)N2CCC(C(=O)N3CCN(c4ccc(F)cc4)CC3)CC2)c1"
result_units = "s"
quantitative_result = 762

[[record]]
molecule = "CCc1ccc(N2C(C)=NS(=O)(=O)c3cccnc32)cc1"
result_units = "s"
quantitative_result = 874

[[record]]
molecule = "COc1cccc(N2CCN(C(=O)C3CCN(c4cnc5nccnc5c4)CC3)CC2)c1"
result_units = "s"
quantitative_result = 728

[[record]]
molecule = "Cc1ccc(-c2ccc(N3CCCC(C(=O)NC4CCCC4)C3)nn2)cc1C (centres undefined)"
result_units = "s"
quantitative_result = 738

[[record]]
molecule = "CC1CCC(NC(=O)CN2C(=O)CCCc3cc(S(=O)(=O)N4CCC(C)CC4)ccc32)CC1 (centres undefined)"
result_units = "s"
quantitative_result = 1040

[[record]]
molecule = "CCN(C(=O)Cn1ncc2c(c1=O)N(C)C(=O)CS2)c1cccc(C)c1"
result_units = "s"
quantitative_result = 756


###

assay: gradient 5% acetonitrile 3 min, to 50% in 2 min, to 85% in 15 min, held 3 min, 100 µL/min; conditions: column: Zorbax Extend-C18 2.1 x 50 mm; eluents: water / acetonitrile, 0.1% formic acid
Hi, to clarify the labels: yes covers RP-LC retention time from 800 s upward, no covers anything below 800 s.

[[record]]
compound = "O=C(CSc1ncc(CO)n1Cc1ccc(F)cc1)N1CCCc2ccccc21"
label_value = "no"

[[record]]
compound = "O=c1c2cnn(-c3ccc(Br)cc3)c2ncn1Cc1nc(-c2ccc(F)cc2)no1"
label_value = "yes"

[[record]]
compound = "COc1ccccc1-c1noc(C2CCCN2C(=O)c2ccc(NC(C)=O)cc2)n1 (stereo not given)"
label_value = "no"

[[record]]
compound = "Cc1cc(NC(=O)C2CCCN(C(=O)C3Sc4ccccc4NC3=O)C2)ccc1Br (stereo not given)"
label_value = "yes"

[[record]]
compound = "O=C(NCCc1ccccc1)c1cn2c3c(ccc(Cl)c3c1=O)OCC2"
label_value = "yes"

[[record]]
compound = "CCCN(CCC)c1nc(-c2ccc(Cl)cc2)nc2ccccc12"
label_value = "yes"

[[record]]
compound = "O=C1/C(=C/c2ccccc2)C[C@@]2(O)[C@H]3Cc4ccc(O)c5c4[C@@]2(CCN3CC2CC2)[C@H]1O5"
label_value = "no"

[[record]]
compound = "COc1ccc(-n2c(N(C)C)nc3cc(C(=O)NC4CC4)sc32)cc1"
label_value = "no"

[[record]]
compound = "CSc1ccc(CCNC(=O)CCCN2C(=O)CCn3nc(C)cc32)cc1"
label_value = "no"


###

test: gradient 5% acetonitrile 3 min, to 50% in 2 min, to 85% in 15 min, held 3 min, 100 µL/min; conditions: column: Zorbax Extend-C18 2.1 x 50 mm; eluents: water / acetonitrile, 0.1% formic acid
Hi, to clarify the labels: True covers RP-LC retention time from 800 s upward, False covers anything below 800 s.

[[record]]
compound = "COc1cc2nc(N3CCCN(C)CC3)nc(NC3CCN(Cc4ccccc4)CC3)c2cc1OC"
label_value = "False"

[[record]]
compound = "CCCCNC(=O)C1CCN(C(=O)c2cc3ccsc3n2Cc2ccc(Cl)cc2)CC1"
label_value = "True"

[[record]]
compound = "Cn1nc(-c2nnc(-c3ccccc3)o2)c2c1CCN(S(=O)(=O)c1cccc(C#N)c1)C2"
label_value = "True"

[[record]]
compound = "O=C(c1cccs1)N1CCC(n2c(C3CCCC3)nc3cccnc32)C1 (stereo unspecified)"
label_value = "False"

[[record]]
compound = "CS(=O)(=O)N(C1CCOCC1)C1CN(C(=O)NCCc2ccccc2)C1"
label_value = "False"

[[record]]
compound = "O=C(CNC(=O)Cc1ccccc1)NCc1[nH]nc2ccccc12"
label_value = "False"

[[record]]
compound = "O=C(Cn1cccc1-c1nnc(-c2ccccc2)o1)N1CCN(c2ccccc2)CC1"
label_value = "True"

[[record]]
compound = "O=C(NCc1ccc(F)cc1)N1CCC(c2noc(-c3cnccn3)n2)C1 (stereo unspecified)"
label_value = "False"

[[record]]
compound = "CCCNC(=O)C1CCN(c2ccc(SCC(=O)Nc3ccc(C(C)C)cc3)nn2)CC1"
label_value = "False"

[[record]]
compound = "CN1C(=O)c2cccn2CC1CNS(=O)(=O)c1ccccc1 (stereo unspecified)"
label_value = "False"

[[record]]
compound = "CCOC(=O)c1[nH]c(C)c(CCC(=O)N2CCC(C(=O)NCCCOC(C)C)CC2)c1C"
label_value = "False"

[[record]]
compound = "O=C(CCC1CCCN(S(=O)(=O)c2ccccc2F)C1)NCCN1CCOCC1 (stereo unspecified)"
label_value = "False"

[[record]]
compound = "COc1ccc(C2CC(=O)N(c3ccc(C)c(Cl)c3)C(=O)C2)cc1OC"
label_value = "False"

[[record]]
compound = "Cc1n[nH]c(C)c1S(=O)(=O)Nc1ccc(CC(=O)NCc2cccs2)cc1"
label_value = "False"

[[record]]
compound = "CCc1noc(NC(C)=O)c1-c1ccc(OC)c(S(=O)(=O)N2CCCc3ccccc32)c1"
label_value = "True"

[[record]]
compound = "CCCNc1cc(N2CCC(CCC(=O)N3CCN(c4ccccn4)CC3)CC2)ncn1"
label_value = "False"

[[record]]
compound = "Cn1c(=O)n(CC(=O)N2CCCCC2)c(=O)c2cnc(-c3ccccc3)nc21"
label_value = "True"

[[record]]
compound = "COc1ccc(Br)c(C(=O)Nc2nnc(Cc3ccc(F)cc3)o2)c1"
label_value = "False"

[[record]]
compound = "O=C(CN1C(=O)CSc2ccc(C(=O)N3CCCCC3)cc21)NCCC1=CCCCC1"
label_value = "True"

[[record]]
compound = "NC(=O)c1cc(Br)cc(C2CCCCC2)c1O"
label_value = "True"

[[record]]
compound = "COC(=O)c1ccc(C2CC(=O)NC3=C2C(=O)C(C(=O)OC)C(C)C3)cc1 (stereo unspecified)"
label_value = "False"

[[record]]
compound = "CCOC(=O)N1CCC(NC(=O)c2coc(NC(=O)c3ccco3)n2)CC1"
label_value = "False"

[[record]]
compound = "Cn1c(=O)sc2cc(S(=O)(=O)N3CCC(C(=O)N4CCCCC4)CC3)ccc21"
label_value = "False"

[[record]]
compound = "Cc1c2cnn(-c3ccccc3)c(=O)c2c(C)n1C(C)C(=O)NCCN1CCOCC1 (stereo unspecified)"
label_value = "False"

[[record]]
compound = "Cc1ccc(CNC(=O)c2ccc3ncnc(N4CCCC4)c3c2)cc1C"
label_value = "False"

[[record]]
compound = "O=S(=O)(c1ccc2nncn2c1)N(Cc1cc(F)cc(F)c1)c1ccccc1"
label_value = "True"

